Molecular target: CPB2.8ΔCTE (Leishmania mexicana, UniProt P36400)
Construct: Wild-type recombinant CPB without the C-terminal extention (i.e. CPB2.8ΔCTE); Dr. Jeremy Mottram (Wellcome Centre for Molecular Parasitology, University of Glasgow)
Sequence (P36400 126-343, stated change not applied): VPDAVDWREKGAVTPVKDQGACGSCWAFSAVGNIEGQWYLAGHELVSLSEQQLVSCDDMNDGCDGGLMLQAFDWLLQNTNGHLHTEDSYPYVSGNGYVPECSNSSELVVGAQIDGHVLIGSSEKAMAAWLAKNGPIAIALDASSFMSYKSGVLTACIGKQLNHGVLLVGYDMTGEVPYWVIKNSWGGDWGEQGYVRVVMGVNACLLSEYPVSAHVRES
Assay: Leishmania mexicana cysteine protease B (CPB) peptidase activity assay (Ki)
Type: biochemical
Conditions: Ki, inhibitors of Leismania mexicana CPB protease
Assign Ki to each entry below.

stdin: Recorded Ki for NCc1cccc(C(=O)N[C@@H](CSCc2ccccc2)C(=O)N2CC[C@@H]3[C@H]2C(=O)CN3C(=O)c2ccccc2)c1 , please?
stdout: < 5 µM

stdin: Quick one: Ki of CC(C)C[C@H](NC(=O)c1cccc(CN)c1)C(=O)N1CC[C@@H]2[C@H]1C(=O)CN2C(=O)[C@@H](N)c1ccccc1 ?
stdout: < 5 µM

stdin: For CC(C)C[C@H](NC(=O)c1ccc(CN)cc1)C(=O)N1CC[C@@H]2[C@H]1C(=O)CN2C(=O)c1ccccc1 , what is its reported Ki?
stdout: < 5 µM

stdin: Name the recorded Ki for CC(C)CCC(=O)N1CC(=O)[C@@H]2[C@H]1CCN2C(=O)[C@H](CC(C)C)NC(=O)c1ccc(C(C)(C)C)cc1 .
stdout: < 5 µM

stdin: Give the measured Ki of Cc1cc(C)cc(C(=O)N2CC(=O)[C@@H]3[C@H]2CCN3C(=O)[C@H](CC(C)C)NC(=O)c2ccc(N(C)C)cc2)c1 .
stdout: < 5 µM

stdin: Look at this compound and give its reported Ki. CC(C)C[C@H](NC(=O)c1ccc(N(C)C)cc1)C(=O)N1CC[C@@H]2[C@H]1C(=O)CN2C(=O)CC1CCCCC1
stdout: < 5 µM

stdin: Given the compound CC(=O)N[C@@H](CCC(C)C)C(=O)N1CC(=O)[C@@H]2[C@H]1CCN2C(=O)[C@H](CC(C)C)NC(=O)c1ccc(N(C)C)cc1 , what is its reported Ki?
stdout: < 5 µM

stdin: Quick one: Ki for CC(=O)N1CCC[C@H]1C(=O)N1CC(=O)[C@@H]2[C@H]1CCN2C(=O)[C@H](CC(C)C)NC(=O)c1ccc(N(C)C)cc1 ?
stdout: < 5 µM

stdin: Can you share its Ki? I mean this compound: CC(C)C[C@H](NC(=O)c1ccc2[nH]ccc2c1)C(=O)N1CC[C@@H]2[C@H]1C(=O)CN2C(=O)c1ccccc1
stdout: < 5 µM

stdin: Fill in: Ki of CC(C)C[C@H](NC(=O)c1ccc(N(C)C)cc1)C(=O)N1CC[C@@H]2[C@H]1C(=O)CN2C(=O)[C@H](C)NC(=O)OCc1ccccc1 is ___
stdout: < 5 µM

stdin: Entry under review: CC(C)C[C@H](NC(=O)c1ccc(N(C)C)cc1)C(=O)N1CC[C@@H]2[C@H]1C(=O)CN2C(=O)Nc1ccccc1 . Reported Ki?
stdout: < 5 µM

stdin: Looking for the measured Ki of CC(C)C[C@H](NC(=O)c1ccc(N(C)C)cc1)C(=O)N1CC[C@@H]2[C@H]1C(=O)CN2C(=O)N1CCOCC1 , can you help?
stdout: < 5 µM

stdin: State the recorded Ki for this entry: O=C(N[C@@H](CC1CCCCC1)C(=O)N1CC[C@@H]2[C@H]1C(=O)CN2C(=O)c1ccccc1)c1ccc2ncsc2c1
stdout: < 5 µM

stdin: Find the recorded Ki belonging to CC(C)C[C@H](NC(=O)c1ccc(N(C)C)cc1)C(=O)N1CC[C@@H]2[C@H]1C(=O)CN2C(=O)c1ccc2cc[nH]c2c1 and report it.
stdout: < 5 µM

stdin: Which Ki value is on record for CC(C)C[C@H](NC(=O)c1ccc(N(C)C)cc1)C(=O)N1CC[C@@H]2[C@H]1C(=O)CN2C(=O)c1cccc(S(C)(=O)=O)c1 ?
stdout: < 5 µM

stdin: # lookup: Ki of CC(C)C[C@H](NC(=O)c1ccc(C(C)(C)C)cc1)C(=O)N1CC[C@@H]2[C@H]1C(=O)CN2C(=O)C1COc2ccccc2O1 (stereo partly shown)
stdout: < 5 µM

stdin: Returns the measured Ki for the input compound. Input: CC(C)C[C@H](NC(=O)c1ccc(N2CCOCC2)cc1)C(=O)N1CC[C@@H]2[C@H]1C(=O)CN2C(=O)c1ccccc1
stdout: < 5 µM

stdin: Requested field: Ki. Item: CC(C)C[C@H](NC(=O)c1ccc(C(C)(C)C)cc1)C(=O)N1CC[C@@H]2[C@H]1C(=O)CN2C(=O)[C@@H](N)CC(C)C
stdout: < 5 µM

stdin: // query Ki value for entry CCCCC(=O)N1CC(=O)[C@@H]2[C@H]1CCN2C(=O)[C@H](CC(C)C)NC(=O)c1ccc(N(C)C)cc1
stdout: < 5 µM

stdin: Quick one: Ki for CC[C@H](NC(=O)OCc1ccccc1)C(=O)N1CC(=O)[C@@H]2[C@H]1CCN2C(=O)[C@H](CC(C)C)NC(=O)c1ccc(N(C)C)cc1 ?
stdout: < 5 µM

stdin: Name the reported Ki value associated with the compound CC(C)CC[C@H](N)C(=O)N1CC(=O)[C@@H]2[C@H]1CCN2C(=O)[C@H](CC(C)C)NC(=O)c1ccc(N(C)C)cc1
stdout: < 5 µM

stdin: Fill blank: measured Ki of the compound CC(C)C[C@H](NC(=O)c1ccc(N(C)C)cc1)C(=O)N1CC[C@@H]2[C@H]1C(=O)CN2C(=O)c1ccco1 is ____.
stdout: < 5 µM

stdin: Entry CC(=O)N[C@@H](CC(C)C)C(=O)N1CC(=O)[C@@H]2[C@H]1CCN2C(=O)[C@H](CC1CCCCC1)NC(=O)c1ccco1 : reported Ki = ?
stdout: < 5 µM

stdin: Reported Ki for CC(C)C[C@H](NC(=O)c1ccc(-c2ccccc2)s1)C(=O)N1CC[C@@H]2[C@H]1C(=O)CN2C(=O)c1ccccc1 : what is it?
stdout: < 5 µM

stdin: # lookup: Ki of CC(C)C[C@H](NC(=O)c1ccc(N(C)C)cc1)C(=O)N1CC[C@@H]2[C@H]1C(=O)CN2C(=O)[C@@H](O)CC(C)C
stdout: < 5 µM
